# Test system: HCT116
# EXPERIMENT: viability inhibition vs untreated; higher = more cytotoxic
# TEST CONDITIONS: genotype: MTA1-KO; 400 nM; 72 h
Where a name gives a salt, the structure may show the parent alone.
viability inhibition: recorded values
Write it as a number; the unit % goes unstated.

N#CNC(=NCCCCCCOc1ccc(Cl)cc1)Nc1ccncc1
18.8
COC(=O)[C@@H](N)CCCN=C(N)N[N+](=O)[O-] [L-NAME hydrochloride]
-19.9
NS(=O)(=O)Cc1noc2ccccc12 [Zonisamide]
-4.06
N#C/C(=C\c1cn(-c2ccccc2)c2ccccc12)C(=O)O
-5.75

The compound O=C(Nc1cccc(C(F)(F)F)c1)Nc1cc(S(=O)(=O)NC2CC2)ccc1-c1ccsc1 , tested on HCT116, showed viability inhibition of 9.84

Test item c1ccc(-c2ccc(C(c3ccccc3)n3ccnc3)cc2)cc1 (configuration not stated) ; HCT116; reported viability inhibition was -14.8

HCT116 assay, compound O=c1[nH]c(-c2ccc(C(F)(F)F)cc2)nc2c1CSCC2 , recorded viability inhibition = -18

Lab entry: HCT116 assay, compound CC(=O)N=c1sc(S(N)(=O)=O)nn1C [Methazolamide] , viability inhibition = -14.6

Result for COc1ccc2[nH]c([S@@+]([O-])Cc3ncc(C)c(OC)c3C)nc2c1 [Esomeprazole Magnesium] , tested on HCT116, viability inhibition: 3.11

---

Recorded measurements of viability inhibition, one per entry
# System: HCT116
# EXPERIMENT: viability inhibition vs untreated; higher = more cytotoxic
# TEST CONDITIONS: genotype: MTA1-KO; 16 nM; 72 h
Structures can show the parent of a compound that is named as a salt.
# value in %; strip the unit string

Example molecules with recorded viability inhibition:
O=[N+]([O-])c1ccc(Nc2nc(N3CCOCC3)nc(N3CCOCC3)n2)cc1
7.65
NS(=O)(=O)NCCNc1nonc1C(=Nc1ccc(F)c(Br)c1)NO
17.9
O=c1[nH]cc(F)c(=O)[nH]1
-23.1
S=C(N/N=C1/CCCc2cccnc21)N1CCN(c2ccccn2)CC1
5.92
COc1cccc2cc(-c3nc(C4CCC(C(=O)O)CC4)n4ncnc(N)c34)[nH]c12 (centres undefined)
12.5
O=C(Nc1ccc(O)cc1)c1ccccc1O
-19.6

The reported viability inhibition of the molecule Cc1ccccc1C(C(=O)NC1CCCCC1)N(C(=O)Cn1ccnc1C)c1cccc(F)c1 (centres undefined) was 7.58

Measured viability inhibition, O=C(Cc1cccc(OC(F)(F)F)c1)Nc1ccc(CCCCc2nnc(NC(=O)Cc3ccccn3)s2)nn1 : -4.17

// recorded viability inhibition for Nc1ccccc1S(N)(=O)=O [2-Aminobenzenesulfonamide] : -12

// sample Oc1ccc2c(c1)OCO2 , its viability inhibition was -15.3

Record summary for O=C(Oc1cc(S(=O)(=O)c2ccccc2)ccc1[N+](=O)[O-])c1ccc(Cl)cc1 : reported viability inhibition = 13.8

For reference, reported viability inhibition for CC(=O)OC(C)(C)/C=C/C(=O)[C@](C)(O)[C@H]1[C@H](O)C[C@@]2(C)[C@@H]3CC=C4[C@@H](C[C@H](O)C(=O)C4(C)C)[C@]3(C)C(=O)C[C@]12C stands at -3.8

O=C(O)CCCCC(CCSCc1ccccc1)SCc1ccccc1 (centres undefined) yielded viability inhibition of -15.7

// recorded viability inhibition for CCc1nc(N)nc(N)c1-c1ccc(Cl)cc1 : -6.42

Form field viability inhibition, entry COc1cc(/C=C/C(=O)CC(=O)/C=C/c2ccc(O)c(OC)c2)ccc1O : -19.2

response.value for Cc1cc(C2CCCCC2)n(O)c(=O)c1 [Ciclopirox ethanolamine] (field: viability inhibition) = -18

get_value(item= CN(C)C(=N)N=C(N)N [Metformin hydrochloride] , readout=viability inhibition) returns -20.9

The molecule listed as COC(=O)[C@@H](N)CCCN=C(N)N[N+](=O)[O-] [L-NAME hydrochloride] shows viability inhibition equal to -9.14

The molecule listed as O=c1[nH]c(-c2ccc(C(F)(F)F)cc2)nc2c1CSCC2 has a reported viability inhibition of 1.12

Entry CCCCCCCCCCCCc1ccc(S(=O)(=O)Nc2nncs2)cc1 , viability inhibition reported as -19.3

Entry under test: CC(=O)O[C@H]1[C@H]2O[C@]23[C@@H]2CC[C@@H]4C[C@@H](O)CC[C@]4(C)[C@H]2CC[C@]3(C)[C@H]1c1ccc(=O)oc1 . Its viability inhibition was 51.8

Query O=C(/C=C/c1ccc2ccccc2n1)c1ccncc1 yields viability inhibition of -28

// recorded viability inhibition for CC(C)(C#N)c1ccc(N2C(=O)OCc3cnc4ccc(-c5cnc6ccccc6c5)cc4c32)cc1 : -21.1

Record CC(C)(CCCCCC(O)CCCCCC(C)(C)C(=O)O)C(=O)O , field viability inhibition: 2.14
